test system: D. immitis L4 larvae; assay: Dirofilaria immitis, L4 Stage (DiL4) In Vitro Assay; format: cell-based; conditions: larval stage selectivity, ratio of DiMf MED to DiL4 MED
measurement.label: DiMf/DiL4
# respond with the number and nothing more

smiles.representation	DiMf/DiL4
COc1cccc(Cc2ccc(C[C@H]3OC(=O)[C@H](CC(C)C)N(C)C(=O)[C@@H](C)OC(=O)[C@H](CC(C)C)N(C)C(=O)[C@@H](Cc4ccc(Cc5cccc(OC)n5)cc4)OC(=O)[C@H](CC(C)C)N(C)C(=O)[C@@H](C)OC(=O)[C@H](CC(C)C)N(C)C3=O)cc2)n1	42.9

Now for the compound whose DiMf/DiL4 we want.
Give the reported DiMf/DiL4 for this compound. CC(C)C[C@H]1C(=O)O[C@H](Cc2ccc(Cc3sccc3Cl)cc2)C(=O)N(C)[C@@H](CC(C)C)C(=O)O[C@H](C)C(=O)N(C)[C@@H](CC(C)C)C(=O)O[C@H](Cc2ccc(Cc3sccc3Cl)cc2)C(=O)N(C)[C@@H](CC(C)C)C(=O)O[C@H](C)C(=O)N1C
333

###

tested on: D. immitis L4 larvae; assay: Dirofilaria immitis, L4 Stage (DiL4) In Vitro Assay; format: cell-based; settings: larval stage selectivity, ratio of DiMf MED to DiL4 MED
# Lookup of reported DiMf/DiL4 keyed by entry

Use these answered entries as a reference point.
smiles.representation	meas.value
CC(C)C[C@H]1C(=O)O[C@H](Cc2ccc(Cc3cncnc3C(C)C)cc2)C(=O)N(C)[C@@H](CC(C)C)C(=O)O[C@H](C)C(=O)N(C)[C@@H](CC(C)C)C(=O)O[C@H](Cc2ccc(Cc3cncnc3C(C)C)cc2)C(=O)N(C)[C@@H](CC(C)C)C(=O)O[C@H](C)C(=O)N1C	6
COc1cc(C)c(Cc2ccc(C[C@H]3OC(=O)[C@H](CC(C)C)N(C)C(=O)[C@@H](C)OC(=O)[C@H](CC(C)C)N(C)C(=O)[C@@H](Cc4ccc(Cc5cnc(OC)cc5C)cc4)OC(=O)[C@H](CC(C)C)N(C)C(=O)[C@@H](C)OC(=O)[C@H](CC(C)C)N(C)C3=O)cc2)cn1	66.7
COc1nccnc1Cc1ccc(C[C@H]2OC(=O)[C@H](CC(C)C)N(C)C(=O)[C@@H](C)OC(=O)[C@H](CC(C)C)N(C)C(=O)[C@@H](Cc3ccc(Cc4nccnc4OC)cc3)OC(=O)[C@H](CC(C)C)N(C)C(=O)[C@@H](C)OC(=O)[C@H](CC(C)C)N(C)C2=O)cc1	5

Now for the compound whose DiMf/DiL4 we want.
Give the reported DiMf/DiL4 for this compound. CC(C)C[C@H]1C(=O)O[C@H](Cc2ccc(Cc3cccnc3OC(F)F)cc2)C(=O)N(C)[C@@H](CC(C)C)C(=O)O[C@H](C)C(=O)N(C)[C@@H](CC(C)C)C(=O)O[C@H](Cc2ccc(Cc3cccnc3OC(F)F)cc2)C(=O)N(C)[C@@H](CC(C)C)C(=O)O[C@H](C)C(=O)N1C
30

###

# Lookup of reported minimal effective concentration keyed by entry
test system: third stage larvae of Haemonchus contortus; assay: Haemonchus contortus, Larvae Stage 3 (HcL3) In Vitro Assay; format: cell-based; settings: Haemonchus contortus, 96 h, read-out: HcL3 MED, Minimum Effective Dose, H. contortus third stage larvae, approximately 96 hours
Be sure to follow the number with its unit.

compound	minimal effective concentration
COc1ncc(F)cc1Cc1ccc(C[C@H]2OC(=O)[C@H](CC(C)C)N(C)C(=O)[C@@H](C)OC(=O)[C@H](CC(C)C)N(C)C(=O)[C@@H](Cc3ccc(Cc4cc(F)cnc4OC)cc3)OC(=O)[C@H](CC(C)C)N(C)C(=O)[C@@H](C)OC(=O)[C@H](CC(C)C)N(C)C2=O)cc1	5.7 µM

Now for the compound whose minimal effective concentration we want.
Look up and report measured minimal effective concentration (third stage larvae of Haemonchus contortus) for the following compound: COC(c1ccc(C[C@H]2OC(=O)[C@H](CC(C)C)N(C)C(=O)[C@@H](C)OC(=O)[C@H](CC(C)C)N(C)C(=O)[C@@H](Cc3ccccc3)OC(=O)[C@H](CC(C)C)N(C)C(=O)[C@@H](C)OC(=O)[C@H](CC(C)C)N(C)C2=O)cc1)c1ccc(F)c(F)c1 (some centres unmarked)
3.3 µM

###

test system: D. immitis L4 larvae; assay: Dirofilaria immitis, L4 Stage (DiL4) In Vitro Assay; assay type: cell-based; details: larval stage selectivity, ratio of DiMf MED to DiL4 MED
# Lookup of reported DiMf/DiL4 keyed by entry

Use these answered entries as a reference point.
compound	meas.value
CC(C)C[C@H]1C(=O)O[C@H](Cc2ccc(Cc3cccs3)cc2)C(=O)N(C)[C@@H](CC(C)C)C(=O)O[C@H](C)C(=O)N(C)[C@@H](CC(C)C)C(=O)O[C@H](Cc2ccc(Cc3cccs3)cc2)C(=O)N(C)[C@@H](CC(C)C)C(=O)O[C@H](C)C(=O)N1C	200
CSc1ncccc1Cc1ccc(C[C@H]2OC(=O)[C@H](CC(C)C)N(C)C(=O)[C@@H](C)OC(=O)[C@H](CC(C)C)N(C)C(=O)[C@@H](Cc3ccc(Cc4cccnc4SC)cc3)OC(=O)[C@H](CC(C)C)N(C)C(=O)[C@@H](C)OC(=O)[C@H](CC(C)C)N(C)C2=O)cc1	10
COC(c1ccc(C[C@H]2OC(=O)[C@H](CC(C)C)N(C)C(=O)[C@@H](C)OC(=O)[C@H](CC(C)C)N(C)C(=O)[C@@H](Cc3ccccc3)OC(=O)[C@H](CC(C)C)N(C)C(=O)[C@@H](C)OC(=O)[C@H](CC(C)C)N(C)C2=O)cc1)c1ccc(F)c(F)c1 (stereo partly shown)	20

Give the reported DiMf/DiL4 for this compound. CC(C)C[C@H]1C(=O)O[C@H](Cc2ccc(Cc3cnn(CCF)c3)cc2)C(=O)N(C)[C@@H](CC(C)C)C(=O)O[C@H](C)C(=O)N(C)[C@@H](CC(C)C)C(=O)O[C@H](Cc2ccc(Cc3cnn(CCF)c3)cc2)C(=O)N(C)[C@@H](CC(C)C)C(=O)O[C@H](C)C(=O)N1C
60

###

test system: D. immitis L4 larvae; assay: Dirofilaria immitis, L4 Stage (DiL4) In Vitro Assay; assay type: cell-based; conditions: larval stage selectivity, ratio of DiMf MED to DiL4 MED
Criterion: DiMf/DiL4 strictly under 30. Met: Met. Not met: Not met.

Examples with answers:
smiles.representation	assay.target	discrete.label
CC(C)C[C@H]1C(=O)O[C@H](Cc2ccc(Cc3ccco3)cc2)C(=O)N(C)[C@@H](CC(C)C)C(=O)O[C@H](C)C(=O)N(C)[C@@H](CC(C)C)C(=O)O[C@H](Cc2ccc(Cc3ccco3)cc2)C(=O)N(C)[C@@H](CC(C)C)C(=O)O[C@H](C)C(=O)N1C	D. immitis L4 larvae	Not met
CC(C)C[C@H]1C(=O)O[C@H](Cc2ccc(Cc3ncco3)cc2)C(=O)N(C)[C@@H](CC(C)C)C(=O)O[C@H](C)C(=O)N(C)[C@@H](CC(C)C)C(=O)O[C@H](Cc2ccccc2)C(=O)N(C)[C@@H](CC(C)C)C(=O)O[C@H](C)C(=O)N1C	D. immitis L4 larvae	Met
CC(C)C[C@H]1C(=O)O[C@H](Cc2ccc(Cc3ccc(F)cc3)cc2)C(=O)N(C)[C@@H](CC(C)C)C(=O)O[C@H](C)C(=O)N(C)[C@@H](CC(C)C)C(=O)O[C@H](Cc2ccccc2)C(=O)N(C)[C@@H](CC(C)C)C(=O)O[C@H](C)C(=O)N1C	D. immitis L4 larvae	Not met
Cc1ccc(Cc2ccc(C[C@H]3OC(=O)[C@H](CC(C)C)N(C)C(=O)[C@@H](C)OC(=O)[C@H](CC(C)C)N(C)C(=O)[C@@H](Cc4ccc(Cc5ccc(C)o5)cc4)OC(=O)[C@H](CC(C)C)N(C)C(=O)[C@@H](C)OC(=O)[C@H](CC(C)C)N(C)C3=O)cc2)o1	D. immitis L4 larvae	Not met

Strictly below 30 in DiMf/DiL4? CC(C)C[C@H]1C(=O)O[C@H](Cc2ccc(Cc3cnccc3C(F)F)cc2)C(=O)N(C)[C@@H](CC(C)C)C(=O)O[C@H](C)C(=O)N(C)[C@@H](CC(C)C)C(=O)O[C@H](Cc2ccc(Cc3cnccc3C(F)F)cc2)C(=O)N(C)[C@@H](CC(C)C)C(=O)O[C@H](C)C(=O)N1C
Met

Strictly below 30 in DiMf/DiL4? Cc1[nH]ncc1Cc1ccc(C[C@H]2OC(=O)[C@H](CC(C)C)N(C)C(=O)[C@@H](C)OC(=O)[C@H](CC(C)C)N(C)C(=O)[C@@H](Cc3ccc(Cc4cn[nH]c4C)cc3)OC(=O)[C@H](CC(C)C)N(C)C(=O)[C@@H](C)OC(=O)[C@H](CC(C)C)N(C)C2=O)cc1
Met

Strictly below 30 in DiMf/DiL4? COc1ccc(Cc2ccc(C[C@H]3OC(=O)[C@H](CC(C)C)N(C)C(=O)[C@@H](C)OC(=O)[C@H](CC(C)C)N(C)C(=O)[C@@H](Cc4ccccc4)OC(=O)[C@H](CC(C)C)N(C)C(=O)[C@@H](C)OC(=O)[C@H](CC(C)C)N(C)C3=O)cc2)c(C)n1
Met
